The reported numbers originate from ChEMBL document CHEMBL4392848.

test: Selectivity ratio of IC50 for human MMP8 to IC50 for human MMP13; type: ADME
recordedEndpoint: Ratio IC50

>>> df
                                        smi  datavalue
0  O=C(NO)[C@@H]1[C@H](O)[C@H](O)CN1C(=O)c1ccc(C#Cc2ccc(CN3CCOCC3)cc2)cc1     4 to 5

###

Listing of recorded diameter of the inhibition zone (DIZ) by entry.
tested on: Enterobacter cloacae; assay: Antibacterial activity against Enterobacter cloacae assessed as diameter of inhibition zone measured after 24 hrs by agar disc diffusion method; type: functional; further: test concentration or dose not given here
recordedEndpoint: diameter of the inhibition zone (DIZ) (mm)

In [3]: df
Out[3]:
                                        smi           studytarget  readoutqualifier  datavalue
0  O=C(NO)[C@@H]1C[C@H](O)CN1C(=O)c1ccc(C#Cc2ccc(CN3CCOCC3)cc2)cc1  Enterobacter cloacae                 =          8
1  CN(C)c1ccc(C#Cc2ccc(C(=O)N3C[C@H](O)C[C@H]3C(=O)NO)cc2)cc1  Enterobacter cloacae                 <          6
2  CCCCCc1ccc(C#Cc2ccc(C(=O)N3C[C@H](O)C[C@H]3C(=O)NO)cc2)cc1  Enterobacter cloacae                 =          8
3  CN(C)c1ccc(C#Cc2ccc(C(=O)N3C[C@@H](O)C[C@H]3C(=O)NO)cc2)cc1  Enterobacter cloacae                 =          8
4  O=C(NO)[C@@H]1C[C@@H](O)CN1C(=O)c1ccc(C#Cc2ccc(CN3CCOCC3)cc2)cc1  Enterobacter cloacae                 <          6
5  O=C(NO)[C@@H]1CCCN1Cc1ccc(C#Cc2ccc(CN3CCOCC3)cc2)cc1  Enterobacter cloacae                 =         20
6  O=C(NO)[C@H]1CCCN1C(=O)c1ccc(C#Cc2ccc(CN3CCOCC3)cc2)cc1  Enterobacter cloacae                 =          9
7  Nc1ccc(C#Cc2ccc(C(=O)N3CCC[C@H]3C(=O)NO)cc2)cc1  Enterobacter cloacae                 <          6
8  O=C(NO)[C@@H]1CCCN1C(=O)c1ccc(C#Cc2ccc(CN3CCSCC3)cc2)cc1  Enterobacter cloacae                 =         14

###

Listing of recorded pIC50 by entry.
assay: Inhibition of Escherichia coli LpxC C63A mutant using UDP-3-O-[(R)-3-hydroxymyristoyl]-N-acetylglucosamine as substrate measured after 30 mins by fluorescence based microplate assay
pIC50: −log10 of the molar value.
recordedEndpoint: pIC50

                                         smi  recordedendpoint  readoutqualifier  datavalue
 0  O=C(NO)[C@@H]1C[C@H](O)CN1C(=O)c1ccc(C#Cc2ccc(CN3CCCC3)cc2)cc1             pIC50                 <       3.70
 1  CCCCCc1ccc(C#Cc2ccc(C(=O)N3C[C@H](O)C[C@H]3C(=O)NO)cc2)cc1             pIC50                 =       5.23
 2  O=C(NO)[C@@H]1CCCN1Cc1ccc(C#Cc2ccc(CN3CCSCC3)cc2)cc1             pIC50                 =       5.09
 3  O=C(NO)[C@@H]1C[C@H](F)CN1C(=O)c1ccc(C#Cc2ccccc2)cc1             pIC50                 =       4.18
 4  O=C(NO)[C@H]1[C@H](O)[C@H](O)CN1C(=O)c1ccc(C#Cc2ccc(CN3CCOCC3)cc2)cc1             pIC50                 <       3.70
 5  O=C(NO)[C@H]1[C@H](O)[C@H](O)CN1C(=O)c1ccc(C#Cc2ccc(CN3CCSCC3)cc2)cc1             pIC50                 <       3.70
 6  O=C(NO)[C@@H]1C[C@H](O)[C@H](c2ccc(C#Cc3ccc(CN4CCOCC4)cc3)cc2)O1             pIC50                 =       4.06
 7  CC1(C)O[C@@H]2[C@@H](CN(C(=O)c3ccc(C#Cc4ccc(CN5CCOCC5)cc4)cc3)[C@H]2C(=O)NO)O1             pIC50                 <       3.70
 8  O=C(NO)[C@@H]1C[C@H](O)CN1C(=O)c1ccc(C#Cc2ccc(CN3CCOCC3)cc2)cc1             pIC50                 =       4.53
 9  O=C(NO)[C@@H]1CCCN1C(=O)c1ccc(C#Cc2ccccc2)cc1             pIC50                 <       3.70
10  CC1(C)O[C@@H]2[C@H](O1)[C@H](c1ccc(C#Cc3ccc(CN4CCOCC4)cc3)cc1)O[C@@H]2C(=O)NO             pIC50                 <       3.70
11  CCCCCc1ccc(C#Cc2ccc(C(=O)N3C[C@@H](O)C[C@H]3C(=O)NO)cc2)cc1             pIC50                 <       3.70
12  O=C(NO)[C@@H]1C[C@@H](O)CN1C(=O)c1ccc(C#Cc2ccc(CN3CCOCC3)cc2)cc1             pIC50                 =       4.32
13  O=C(NO)[C@@H]1CCCN1C(=O)c1ccc(C#Cc2ccc(CN3CCSCC3)cc2)cc1             pIC50                 =       4.34
14  O=C(NO)[C@@H]1C[C@@H](O)CN1C(=O)c1ccc(C#Cc2ccc(F)cc2)cc1             pIC50                 <       3.70
15  O=C(NO)[C@@H]1CCCN1C(=O)c1ccc(C#Cc2ccc(CN3CCS(=O)(=O)CC3)cc2)cc1             pIC50                 =       4.77
16  O=C(NO)[C@@H]1[C@H](O)[C@H](O)CN1C(=O)c1ccc(C#Cc2ccc(CN3CCOCC3)cc2)cc1             pIC50                 =       5.60
17  O=C(NO)[C@@H]1O[C@@H](c2ccc(C#Cc3ccc(CN4CCOCC4)cc3)cc2)[C@@H](O)[C@H]1O             pIC50                 =       5.00
